- ASSAYED SYSTEM: T1, HLA-A2 molecules in T2 cells (human)
- T1 construct: whole, on cells; Target of the HLA-A2 Stabilization Assay; also called MHC class I, HLA-A2; MHC/HLA-A2
- ASSAY TEXT: HLA-A2 stabilization assay on T2 cells
MEASURE: binding result

[[record]]
binder = "TLIDLPGIT (synthetic truncated peptide) [P14-7]"
test_value = "no binding"

[[record]]
binder = "TLVDLP (synthetic truncated peptide; also called TLVDLP) [P13-10]"
test_value = "no binding"

[[record]]
binder = "TLVDLPGMTK (synthetic truncated peptide) [P13-6]"
test_value = "no binding"

[[record]]
binder = "VLNLLEL (synthetic truncated peptide; also called VLNLLEL) [P3-2]"
test_value = "no binding"


Provenance of the data: patent US20110070185A1
